test system: ATP; experiment: switch fluorescence ratio, 500 uM ATP over buffer (Cy3 cluster intensity, sum of 5 cycles each) (fold (ratio)); higher = stronger signal-on switching upon ATP binding; sequences stand for … in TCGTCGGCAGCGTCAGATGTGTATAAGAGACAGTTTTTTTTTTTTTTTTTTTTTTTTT…TC; conditions: aptamer strand: ATP DNA aptamer (quencher-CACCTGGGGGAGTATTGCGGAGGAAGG + anchor), 100 nM annealed; ATP concentration: 500 uM;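 further: ATP exposure 15 min at 22 °C before imaging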
I'd appreciate it if you could supply switch fluorescence ratio values for the items below.
Give only the figure.

Input line: May I ask what switch fluorescence ratio has been recorded for GGGGGGGGCA ?
Output line: 0.985

Input line: Data request, read-out switch fluorescence ratio, for GACCGGTGGG
Output line: 0.979

Input line: Request the reported switch fluorescence ratio associated with TTATAAAACC
Output line: 1.02

Input line: What does the data say about its switch fluorescence ratio? Entry: GCCCTGAGCA
Output line: 1.01

Input line: Using the record for CGAAAATGGG , report its switch fluorescence ratio.
Output line: 0.977

Input line: I have this sequence here, GGGATAGAAG , and I need its recorded switch fluorescence ratio.
Output line: 0.971

Input line: Return reported switch fluorescence ratio; argument: TTGGGGTCGG
Output line: 0.999

Input line: If you can, please state the reported switch fluorescence ratio value of TCACTCGAAG .
Output line: 1.01

Input line: Find the recorded switch fluorescence ratio belonging to TTTGGGGGTT and report it.
Output line: 1.01

Input line: Value lookup for switch fluorescence ratio; key = GCAAGTAGGG
Output line: 1.02

Input line: # query: switch fluorescence ratio of entry GTATTTGGAG
Output line: 1.02

Input line: What value of switch fluorescence ratio has been reported for the following sequence? TGGTTTAACA
Output line: 0.992

Input line: Entry CTGCGGTGGG : reported switch fluorescence ratio = ?
Output line: 1.01

Input line: # input sequence: GTTTTGTATG ; wanted: its switch fluorescence ratio
Output line: 1

---

Exercise: state measured switch fluorescence ratio for each of the sequences provided.
system: ATP; test: switch fluorescence ratio, 500 uM ATP over buffer (Cy3 cluster intensity, sum of 5 cycles each) (fold (ratio)); higher = stronger signal-on switching upon ATP binding; sequences stand for … in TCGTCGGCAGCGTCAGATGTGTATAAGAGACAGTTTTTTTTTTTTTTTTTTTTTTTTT…TC; details: aptamer strand: ATP DNA aptamer (quencher-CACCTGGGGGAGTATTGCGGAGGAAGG + anchor), 100 nM annealed; ATP concentration: 500 uM;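 further: ATP exposure 15 min at 22 °C before imaging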
Please reply with the value in numeric form only.

Input line: Consider the sequence CATGTTGGAG and give its measured switch fluorescence ratio.
Output line: 0.992

Input line: Requested field: switch fluorescence ratio. Item: AGTTCCGAGG
Output line: 1.12

Input line: Need switch fluorescence ratio of AGATTTAGAG , thanks.
Output line: 1.01

Input line: I have this sequence here, TTTTGTTTGG , and I need its recorded switch fluorescence ratio.
Output line: 1.02

Input line: Query (sequence): CACTGCGCGC ; field requested: switch fluorescence ratio
Output line: 1.11

---

Record form. Attribute: switch fluorescence ratio. Fill in for each entry.
tested on: ATP; assay: switch fluorescence ratio, 500 uM ATP over buffer (Cy3 cluster intensity, sum of 5 cycles each) (fold (ratio)); higher = stronger signal-on switching upon ATP binding; sequences stand for … in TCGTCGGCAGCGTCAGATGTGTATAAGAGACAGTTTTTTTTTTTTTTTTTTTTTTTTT…TC; conditions: aptamer strand: ATP DNA aptamer (quencher-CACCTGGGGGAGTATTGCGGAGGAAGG + anchor), 100 nM annealed; ATP concentration: 500 uM;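 further: ATP exposure 15 min at 22 °C before imaging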
The reply should be a number, written without any unit.

Input line: Which measured switch fluorescence ratio value corresponds to GAGGGAAATG ?
Output line: 0.997

Input line: # input sequence: TAGTTACTTT ; wanted: its switch fluorescence ratio
Output line: 1.02

Input line: Need switch fluorescence ratio of ATCGTATGGA , thanks.
Output line: 0.998

Input line: Which switch fluorescence ratio value belongs to TGTCCTGGCT ?
Output line: 1.02

Input line: Can you look up the measured switch fluorescence ratio of ATCGCGTGTG for me?
Output line: 1.01

Input line: // returns reported switch fluorescence ratio for input GATGGATAGT
Output line: 0.992

Input line: Which switch fluorescence ratio value is on record for ACTGAGGGGG ?
Output line: 1

Input line: What switch fluorescence ratio value was documented for this sequence, CAAGGGGATT ?
Output line: 1

Input line: Sample GAATGTATTG — what was its switch fluorescence ratio?
Output line: 1.01

Input line: Item TTTGGTTAGC has what recorded switch fluorescence ratio?
Output line: 1.01

Input line: May I ask what switch fluorescence ratio has been recorded for TCGTTATTTG ?
Output line: 1

Input line: // lookup switch fluorescence ratio for GGGGTATTAG
Output line: 0.991

Input line: Fill in the blank: the reported switch fluorescence ratio of CTTATAATTT is ____.
Output line: 0.995

Input line: Could you tell me which switch fluorescence ratio is on file for ACGTTCGTTG ?
Output line: 0.991

Values compiled from the supplement of paper PMC10126150.
